assay: Solubility in pH controlled solutions and intravenous formulations; assay type: physicochemical; conditions: pH controlled solution, pH 2, simulated gastric fluid; read-out: Solubility pH 2
measurementLabel: solubility (µg/mL)
Numbers only, in µg/mL.

Item: CC(=O)O[C@@]12C[C@@H](C)[C@@]3(O)[C@@H](C=C(CO)C[C@]4(O)C(=O)C(C)=C[C@@H]34)[C@@H]1C2(C)C [SA-101A, 12-deoxyphorbol 13-acetate] | solubility: 370

====

Assay: Solubility in pH controlled solutions and intravenous formulations
Format: physicochemical
Settings: pH controlled solution, pH 7.5, aqueous buffer; read-out: Solubility pH 7.5
Protocol: Solubility of prostratin and SA-101B was measured in pH controlled solutions and in various representative formulations, in particular, intravenous formulations, where solubility is often a limiting factor.
measurementLabel: solubility
# do not omit the unit; it follows the number

Item: CC(=O)O[C@@]12C[C@@H](C)[C@@]3(O)[C@@H](C=C(CO)C[C@]4(O)C(=O)C(C)=C[C@@H]34)[C@@H]1C2(C)C [SA-101A, 12-deoxyphorbol 13-acetate] | solubility: 420 µg/mL
